The values you see were collected from patent US20030148958A1.

TARGET_ENTITY: CRF1R; also: reference of the scale not given here
ASSAY_NAME: cell-based or functional assay
Ends that are not written are not given here.
Label criterion met when CRF1R Emax % < 90%; otherwise criterion not met.

Exercise: Below 90% on CRF1R Emax %? Entry ZGPPISIDLPQILLRKVIEIEKQEKEKQQAANNRLLLDTI (C-terminal amide) [SEQ ID NO 293]
Key: criterion not met

Exercise: For this binder, is CRF1R Emax % lower than 90%? DNPSLSIDLPLFLLRTLLELEKTQSQRERAEQNARIFARV-NH2 [SEQ ID NO 334]
Key: criterion met

Exercise: # strict comparison: is reported CRF1R Emax % < 90%? input = ZGPPISIDLPIFLLRKVIEIEKQEKEKQQAANNARLLARI (C-terminal amide) [SEQ ID NO 281]
Key: criterion met

Exercise: Is CRF1R Emax % of ZGPPISIDLPFQLLRKVIEIEKQEKEKQQAANNARLLARI (not fully specified; C-terminal amide) [SEQ ID NO 279] strictly below 90%?
Key: criterion not met

Exercise: Field: below-cutoff. Rule: recorded CRF1R Emax % strictly less than 90%. Subject: ZGPPISIDLPLHLLRKMIEIEKQEKEKQQAANNALLLDTI (C-terminal amide) [SEQ ID NO 240]
Key: criterion met
